molecular target: recombinant hMAO-B (Homo sapiens (Human), UniProt P27338); assay: MAO-B activity assay (MAO-Glo assay kit); settings: 4 μM substrate, 30 mins pre-incubation
Sequence (P27338 whole entry): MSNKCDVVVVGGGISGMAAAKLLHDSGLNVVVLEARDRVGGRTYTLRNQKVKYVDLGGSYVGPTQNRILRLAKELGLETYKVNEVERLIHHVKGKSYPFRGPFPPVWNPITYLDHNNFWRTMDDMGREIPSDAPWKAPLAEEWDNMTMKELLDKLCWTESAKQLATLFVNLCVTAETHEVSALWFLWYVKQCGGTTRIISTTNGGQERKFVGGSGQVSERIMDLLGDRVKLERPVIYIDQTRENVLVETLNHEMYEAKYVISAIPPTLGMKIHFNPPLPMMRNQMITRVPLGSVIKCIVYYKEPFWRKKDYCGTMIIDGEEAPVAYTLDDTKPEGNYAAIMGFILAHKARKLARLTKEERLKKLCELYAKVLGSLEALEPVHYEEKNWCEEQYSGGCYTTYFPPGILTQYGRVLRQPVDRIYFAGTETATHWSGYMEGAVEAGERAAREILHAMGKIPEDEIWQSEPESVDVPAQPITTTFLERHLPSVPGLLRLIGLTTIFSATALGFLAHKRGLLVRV
pIC50: −log10 of the molar value.
attribute-measured: pIC50

NC/C(=C\F)COc1ccc(S(=O)(=O)CN2CCC3(CCCC3)C2=O)c(F)c1 < 4.52
N#CC1(CS(=O)(=O)c2ccc(OC/C(=C/F)CN)cc2F)CCOCC1 4.52 to 5.00
CC(C)(C)C(=O)NC12CCC(CS(=O)(=O)c3ccc(OC/C(=C\F)CN)cc3)(CC1)CC2 < 4.52

Request the reported pIC50 associated with "NC/C(=C\F)COc1ccc(S(=O)(=O)CN2C(=O)C3(CC3)c3ccccc32)cc1"
< 4.52
